molecular target: CDK2 (cyclin A) (Homo sapiens); construct: purchased Invitrogen Life Technologies (assay service); assay: Z'-LYTE kinase assay; format: biochemical
Task for the reader: assign each of the following molecules its reported pIC50.
Scale: pIC50 equals -log10([C]), with [C] in mol/L.

Challenge: Could you share which pIC50 value was measured for `N#Cc1cc2cnc(Nc3ccc(S(N)(=O)=O)cc3)nc2n(C2CCCC2)c1=O` ?
Response given: 7.60

Challenge: Could you share which pIC50 value was measured for CN(C)C1CCc2ccc(Nc3ncc4cc(C#N)c(=O)n(C5CCCC5)c4n3)cc2C1 (stereo not drawn) ?
Response given: 6.85

Challenge: Could you share which pIC50 value was measured for `CCS(=O)(=O)N1CCC(Nc2ncc3cc(C#N)c(=O)n(C4CCCC4)c3n2)CC1` ?
Response given: 7.96

Challenge: Could you share which pIC50 value was measured for `CN(C)S(=O)(=O)N1CCC(Nc2ncc3cc(C#N)c(=O)n(C4CCCC4)c3n2)CC1` ?
Response given: 6.82

Challenge: Could you share which pIC50 value was measured for `COCCS(=O)(=O)N1CCC(Nc2ncc3cc(C#N)c(=O)n(C4CCCC4)c3n2)CC1` ?
Response given: 7.15

Challenge: Could you share which pIC50 value was measured for CS(=O)(=O)N1CCC(Nc2ncc3cc(C#N)c(=O)n([C@H]4C[C@@H]5CC[C@H]4C5)c3n2)CC1 (racemic) ?
Response given: 8.00

Challenge: Could you share which pIC50 value was measured for `Cn1ccc(S(=O)(=O)N2CCC(Nc3ncc4cc(C(F)F)c(=O)n([C@@H]5C[C@H]6CC[C@@H]5C6)c4n3)CC2)n1` ?
Response given: 7.85

Challenge: Could you share which pIC50 value was measured for `N#Cc1cc2cnc(Nc3ccc4c(c3)CN(CCN)CC4)nc2n(C2CCCC2)c1=O` ?
Response given: 6.77

Challenge: Could you share which pIC50 value was measured for `N#Cc1cc2cnc(Nc3ccc4c(c3)CCN(C(=O)CO)C4)nc2n(C2CCCC2)c1=O` ?
Response given: 7.57

Challenge: Could you share which pIC50 value was measured for CS(=O)(=O)N1CCC(Nc2ncc3cc(C(F)F)c(=O)n(C4CC5CCC4C5)c3n2)CC1 (racemic) ?
Response given: 7.72

Challenge: Could you share which pIC50 value was measured for CS(=O)(=O)N1CCC(Nc2ncc3cc(C#N)c(=O)n(C4CCC(F)(F)C4)c3n2)CC1 (racemic) ?
Response given: 7.52

Challenge: Could you share which pIC50 value was measured for `N#Cc1cc2cnc(Nc3ccc(N4CCNCC4)cc3)cc2n(C2CCCC2)c1=O` ?
Response given: 5.96
